Source: patent US7153813B2

test system: weeds; assay: Pre-Emergence Test (Example A), damage to weeds; format: in vivo; settings: soil sprayed 24 hours after sowing, rated after three weeks
PROPERTY NAME: activity against weeds (degree of damage)

COMPOUND SMILES: CCn1ncc(C(=O)c2ccc(C(F)(F)F)cc2CS(C)(=O)=O)c1OCc1cccc(C)c1
RESULT: strong activity

COMPOUND SMILES: CCn1ncc(C(=O)c2ccc(C(F)(F)F)cc2CS(C)(=O)=O)c1OCc1ccc(C)cc1
RESULT: strong activity

COMPOUND SMILES: CCn1ncc(C(=O)c2ccc(C(F)(F)F)cc2CS(C)(=O)=O)c1O
RESULT: strong activity

COMPOUND SMILES: Cn1ncc(C(=O)c2ccc(C(F)(F)F)cc2CS(C)(=O)=O)c1O
RESULT: strong activity
